system_tested: human muscarinic M1 receptor (Homo sapiens)
Sequence (P11229 whole entry): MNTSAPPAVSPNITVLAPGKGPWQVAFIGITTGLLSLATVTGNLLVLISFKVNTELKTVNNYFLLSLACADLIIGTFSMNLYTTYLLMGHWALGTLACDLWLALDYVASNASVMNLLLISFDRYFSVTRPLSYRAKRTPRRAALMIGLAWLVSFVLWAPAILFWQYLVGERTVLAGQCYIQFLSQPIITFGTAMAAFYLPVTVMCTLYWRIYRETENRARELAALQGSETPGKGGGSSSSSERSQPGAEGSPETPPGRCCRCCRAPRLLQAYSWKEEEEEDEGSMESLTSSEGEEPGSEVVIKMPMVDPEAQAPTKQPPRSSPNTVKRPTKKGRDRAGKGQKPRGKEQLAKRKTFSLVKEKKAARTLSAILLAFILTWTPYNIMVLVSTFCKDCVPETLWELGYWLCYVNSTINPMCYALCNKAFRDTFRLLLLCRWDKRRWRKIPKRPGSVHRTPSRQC
measurement_notes: Alphascreen Surefire phospho-ERK1/2 functional assay, M1
Format: cell-based
measurement_parameters: CHO cells stably expressing human M1; phospho-ERK1/2; * = variable results; read-out: pEC50 M1 (converted)
EC50: recorded values
measured_property: EC50

compound="CCOC(=O)N1CCC2(CC(N3CCC(c4cc(N)n[nH]4)CC3)C2)C1 (single isomer, unassigned) [1-19 Isomer 2]" system_tested="human muscarinic M1 receptor (Homo sapiens)" value_measured="0.794 µM"
compound="CCOC(=O)N1CCC2(CC(N3CCC(C4CCCCN4C(=O)CC)CC3)C2)C1 (single isomer, unassigned) [4-19 Isomer 2]" system_tested="human muscarinic M1 receptor (Homo sapiens)" value_measured="> 20 µM"
compound="CCOC(=O)N1CCC2(CC(N3CCC([C@H]4CCCN4C(=O)NC)CC3)C2)C1 (single isomer, unassigned) [2-18 Isomer 2]" system_tested="human muscarinic M1 receptor (Homo sapiens)" value_measured="> 20 µM"

Data provenance: patent US9926297B2
